Tested on: HCT-116 colon
METHOD SUMMARY: NCI-60 one-dose screen, 48 h (100 = growth as untreated, 0 = no growth, -100 = all killed)
CONDITION INFO: 10 µM unless noted
The panel holds about 83,000 compounds, 20% with a hit somewhere; the sample as a whole holds those more often.
// reported growth per item
Your answer should be a plain number; it is taken to be in %.

Below are worked cases with known answers.
COMPOUND | RESULT UNITS | READOUT VALUE
C/C=C/c1cc2c(c(=O)o1)C(=O)[C@@H](O)[C@H](C)O2 | % | 14.1
Cc1nc([N+](=O)[O-])c(Sc2nncc(-c3ccccc3)n2)n1C | % | 53.2
Cc1nc(Sc2nc3ccc([N+](=O)[O-])cc3s2)sc1C | % | 2.1
C/C(=N/NC(N)=S)c1ccc(C)cc1 | % | 8.6
Cc1cc(N/N=C/c2ccccn2)nc2ccccc12 | % | 17.6

Input: growth lookup needed for `Oc1ccc(Nc2ccc3ccccc3c2)cc1` , thanks.
Output: 70.8

* * *

Tested on: A498 renal
METHOD SUMMARY: NCI-60 one-dose screen, 48 h
CONDITION INFO: 10 µM unless noted
Compounds without any hit were thinned out: in the full panel of roughly 83,000, 20% have a hit. The source made the active and inactive calls. How the source made its calls: active means growth percent below 10; inactive means the rest.
Bench note: report the call from Y for active, N for inactive

Here's what some known entries look like.
COMPOUND | GROUP
COc1cc(NCc2ccc3nc(N)nc(N)c3c2C)cc(OC)c1OC (tested in a mixture with another compound) | N
Oc1c(C(Nc2ccccc2)c2ccccc2)ccc2cccnc12 (stereo unspecified) | N
CCC1CCCCN1C(=S)N/N=C(\C)c1ccccn1 (stereo unspecified) | Y
CCCCOS(=O)(=O)c1ccccc1 | N
O=S(=O)(O)c1cnccn1 | N
O=[N+]([O-])c1ccc(N2CCN(Cc3ccccc3)CC2)c2c1no[n+]2[O-] | N
CCN1CCCC(Nc2cc(C)nc(/N=C(/N)Nc3ccc(Cl)c(Cl)c3)n2)C1 (stereo unspecified) | Y
Oc1ccc2ccccc2c1N=Nc1nccs1 | N

Input: What is the recorded call for this compound in the test? `CN=C(N)N/N=C(\C)c1ccc2c(c1)Cc1ccccc1-2`
Output: Y

Input: How about `Cc1nnc(N/N=C/c2ccc([N+](=O)[O-])o2)[nH]c1=O` ?
Output: Y

Input: Then `Clc1ccccc1C(c1ccccc1)(c1ccccc1)n1ccnc1` ?
Output: N

* * *

System: EKVX NSCLC
METHOD SUMMARY: NCI-60 one-dose screen, 48 h (100 = growth as untreated, 0 = no growth, -100 = all killed)
CONDITION INFO: 10 µM unless noted
Method: Growth inhibition of the EKVX human Non-Small Cell Lung tumor cell line is measured as a screen for anti-cancer activity. Cells are grown in 96 well plates and exposed to the test compound for 48 hours. Compounds are tested at a single concentration, which is 10^-5 M for most compounds. The reported endpoint is percent growth (GI% or GIPRCNT), where numbers from 0 - 100% represent growth inhibition, and numbers from -100% - 0 represent cell death. […]
The panel holds about 83,000 compounds, 20% with a hit somewhere; the sample as a whole holds those more often.
Decision: growth beneath 80% gives class 1; growth meeting or exceeding 80% gives class 0.

Completed entries (count: 3):
MOLECULE | GROUP
COc1ccc(NC(=O)/C(=C/N2C(=O)/C(=C/c3ccc(OC)c(OC)c3)NC2=S)C(C)=O)cc1 | class 0
COC1CC(C)C(OC)c2cc(O)cc(c2O)NC(=O)/C(C)=C/C=C\C(C)C(OC(N)=O)/C(C)=C\C(C)C1OC (stereo not given) | class 1
O=C1C(=O)c2cccnc2-c2ncccc21 | class 1

Input: is_below(growth, 80%) for `Cc1oc2c(C)c3oc(=O)cc(C)c3cc2c1CCl` ?
Output: class 1

* * *

Test system: K-562 leukemia
METHOD SUMMARY: NCI-60 one-dose screen, 48 h (100 = growth as untreated, 0 = no growth, -100 = all killed)
CONDITION INFO: 10 µM unless noted
Method: Cells are grown in 96 well plates and exposed to the test compound for 48 hours. Compounds are tested at a single concentration, which is 10^-5 M for most compounds. The reported endpoint is percent growth (GI% or GIPRCNT), where numbers from 0 - 100% represent growth inhibition, and numbers from -100% - 0 represent cell death. For example, a value of 40 represents 60% growth inhibition. A value of 0 means no net growth occurred over the course of the experiment. […]
This is part of a sample that, as a whole, favours compounds with a hit. Of some 83,000 tested, about 20% had one in any assay.
READOUT NAME: growth (%)
Your answer should be a plain number; it is taken to be in %.

# example entries with known answers
MOLECULE | READOUT VALUE
Oc1ccc(Cl)cc1Cc1cc(Cl)ccc1O | 21.1
COC(=O)c1nc(=S)[nH]c(C(=O)OC)c1C(=O)c1ccc(Cl)c(Cl)c1 | 113
O=[N+]([O-])c1cc(-c2ccccc2)c(O)c([N+](=O)[O-])c1 | 68.9
OC(CSc1ccccc1)CN1CCN(c2ccc(Cl)cc2)CC1 (stereo unspecified) | 78.3

Input: Can you share its growth? I mean this molecule: `CC(C)=C1C=C2CC[C@@H]3[C@](C)(CCC[C@@]3(C)C(=O)O)[C@H]2CC1`
Output: 84.3

Input: Quick one: `Oc1ccc(Cl)cc1C(c1cc(Cl)ccc1O)C(Cl)(Cl)Cl`
Output: 4.51

Input: Record: `O=C(NOC(=O)c1ccccc1)c1ccccc1`
Output: 40.8

Input: Next molecule: `CCCCCCCCc1cc(Cl)c(O)c(Cl)c1`
Output: 104

Input: Further, for `COC(=O)C(=[N+]=[N-])C(=O)c1ccc([N+](=O)[O-])o1` ?
Output: 81.6

Input: And for Cc1ccccc1N=C(N)Nc1ccccc1C (tested in a mixture with another compound) ?
Output: 85.8

Input: Next molecule: `O=C1C(=O)c2cccnc2-c2ncccc21`
Output: -23.4

* * *

Test system: DU-145 prostate
METHOD SUMMARY: NCI-60 one-dose screen, 48 h
CONDITION INFO: 10 µM unless noted
Compounds without any hit were thinned out: in the full panel of roughly 83,000, 20% have a hit. Active and inactive are the calls of the source. Rule for the calls: active = growth percent below 10; inactive = the rest.
Choose one outcome from this list and give only that: active, inactive

Known results for compounds:
COMPOUND | GROUP
CN(C)c1ccc(/C=C/c2cc[n+](C)c(/C=C/c3ccc(N(C)C)cc3)c2)cc1 | inactive
O=C(CCl)N1c2ccccc2Sc2c1ccc1ccccc21 | inactive
O=C(c1ccccc1)C(Br)[N+](=O)[O-] (stereo not drawn) | inactive
S=C1SCN(Cc2cccs2)CN1Cc1cccs1 | inactive
Cc1cc(C(N)=O)cc(C)c1C(=O)OCCCl | inactive

Input: Please indicate how the test categorized `c1ccc(-c2cccc(-c3ccccn3)n2)nc1` .
Output: inactive

Input: Param item: `NC(=S)N/N=C\c1nccc2c(N)cccc12`
Output: inactive

Input: What would you report for `CC(C)=C1C=C2CC[C@@H]3[C@](C)(CCC[C@@]3(C)C(=O)O)[C@H]2CC1` ?
Output: inactive

* * *

Tested on: LOX IMVI melanoma
METHOD SUMMARY: NCI-60 one-dose screen, 48 h
CONDITION INFO: 10 µM
The panel holds about 83,000 compounds, 20% with a hit somewhere; the sample as a whole holds those more often. Calls of active or inactive are those of the source. The calls were made as follows: active = growth percent below 10; inactive = the rest.
Write down the outcome that applies. Available outcomes: active, inactive

Example entries begin here.
COMPOUND | GROUP
COC(=O)[C@]1(C)CCC[C@]2(C)c3ccc(C(C)C)cc3C(=O)[C@@H](Br)[C@@H]12 | inactive
CN(C)c1ccc(/C=C/c2sc3ccc4ccccc4c3[n+]2C)cc1 | active
Cc1ccc2c(c1)sc(-c1ccc(N(C)C)cc1)[n+]2C | active
O=C1/C(=C\c2ccc([N+](=O)[O-])cc2)CS(=O)(=O)C/C1=C/c1ccc([N+](=O)[O-])cc1 | active
CCCCCCCCCCCCCCCCCC[S+](C)CC (centres undefined) | active
Cc1cc2cccnc2c2ncccc12 | inactive
CCN1/C(=C/C(C)=C/c2sc3ccc4ccccc4c3[n+]2CC)Sc2ccc3ccccc3c21 | active
CCCCCCCCCCCCCCCCSC(=NCC)NCC | active
CCCCOS(=O)(=O)c1ccccc1 | inactive
COc1c(C)c2c(c(O)c1C/C=C(\C)CCC(=O)O)C(=O)OC2 | inactive

Input: Would you mind telling me which call this test gave `O=C(O)c1cccc2cccc(-c3c4ccc(=O)c(O)c-4oc4c(O)c(O)ccc34)c12` ?
Output: inactive

* * *

System: PC-3 prostate
METHOD SUMMARY: NCI-60 one-dose screen, 48 h
CONDITION INFO: 10 µM unless noted
The panel holds about 83,000 compounds, 20% with a hit somewhere; the sample as a whole holds those more often. Calls of active or inactive are those of the source. How the source made its calls: active means growth percent below 10; inactive means the rest.
// allowed return values: active, inactive

COMPOUND | TARGET DESC | GROUP
COc1cccc2c1C(=O)c1c(O)c3c(c(O)c1C2=O)C[C@@](O)(C(=O)CO)C[C@@H]3OC1CC(OC(C)=O)C(OC(C)=O)C(C)O1 (some centres undefined) | PC-3 prostate | active

Input: For `CCCC[n+]1c(/C=C\c2c(OC)cc(OC)cc2OC)ccc2ccccc21` , which call appears in the assay record?
Output: active

Input: Input `O/N=C1\c2ccccc2-c2ccc(F)cc21`
Output: inactive

Input: Further, for `CCCCOS(=O)(=O)c1ccccc1` ?
Output: inactive

Input: Lookup CCN(CC)CC(O)CNc1ccc(NCC2CO2)c2c1C(=O)c1ccccc1C2=O (centres undefined)
Output: active

Input: Do the same for `CC(C)=C1C=C2CC[C@@H]3[C@](C)(CCC[C@@]3(C)C(=O)O)[C@H]2CC1` please
Output: inactive

Input: Continue with `Cc1cc(C)c(C#N)c(Sc2nc(C)c([N+](=O)[O-])c(C)c2C#N)n1`
Output: inactive

Input: CN1CCC(CN2c3ccccc3Sc3ccccc32)C1 (centres undefined) , same question.
Output: inactive

Input: Another: CCCCCC/C=C1\CCC(CN2CCCC2)C1=O (centres undefined)
Output: inactive

Input: And `CN(C)c1ccc(C(C#N)(c2ccccc2)c2ccc(N(C)C)cc2)cc1` ?
Output: inactive

Input: Do the same for `O=C(O)c1cc2c(s1)C(=O)c1sccc1C2=O` please
Output: inactive
